- TESTED_SYSTEM: PPIA (Homo sapiens, UniProt P62937)
- Construct: Full length PPIA (residues 1-165) with an N-terminal 6×his-yBBR-TEV tag; 6×his-yBBR-TEV (N); made in house; host or cells: E. coli BL21 (DE3) CodonPlus RIPL
- Sequence (P62937 whole entry, the tested form may be a part): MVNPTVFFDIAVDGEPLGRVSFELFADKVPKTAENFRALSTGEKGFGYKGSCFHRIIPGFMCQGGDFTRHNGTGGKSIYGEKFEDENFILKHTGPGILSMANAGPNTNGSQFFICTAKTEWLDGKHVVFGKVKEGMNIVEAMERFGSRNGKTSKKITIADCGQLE
- PROTOCOL_TEXT: Phage Library Screening with NGS, PPIA
- Format: binding
- CONDITION_CONTEXT: target concentration 300
PROPERTY: phage screen counts, Target Concentration 300

> print(dat)
   biopolymer.sequence  measured.result
1    DPARAACHVAAYWCYHQ                7
2    DPATMNCHVAAYFCIVE               13
3          PHDCHVNAWYC               26
4    DPAQADCHIAAYLCLFD               19
